Measured nuclei count accompanies every entry in the list below.
experiment: inhibitors of E-selectin induction by TNFa, primary screen, imaging, HUVEC, immunofluorescence, MLSMR starter and 10KST1 sets (AID 487); conditions: HUVEC TNFalpha-induced E-selectin immunofluorescence imaging, at 2 µM; measured here: cell number, toxicity;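 note: 100% = median nuclei count of all wells on the same plate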
Entry rule: numbers only, all in %.

Examples from the recorded data:
[
  {
    "Smiles string": "NC(=O)COC(=O)c1ccc(S(=O)(=O)N2CCCCCC2)cc1",
    "Numeric value": 116
  },
  {
    "Smiles string": "CCn1c(=O)c(=O)[nH]c2cc(C(=O)N3CCN(c4ccccc4F)CC3)ccc21",
    "Numeric value": 110
  }
]

Okay, now this compound:
Please give the measured nuclei count for this compound: "Cc1cc(C)c2c(=O)n(CC(=O)NCCCN3CCN(c4ccccc4F)CC3)sc2n1"
119

The values you see were collected from PubChem BioAssay.
